Biological target: human TRPM5 ion channel (Homo sapiens)
Sequence (Q9NZQ8 1-1165): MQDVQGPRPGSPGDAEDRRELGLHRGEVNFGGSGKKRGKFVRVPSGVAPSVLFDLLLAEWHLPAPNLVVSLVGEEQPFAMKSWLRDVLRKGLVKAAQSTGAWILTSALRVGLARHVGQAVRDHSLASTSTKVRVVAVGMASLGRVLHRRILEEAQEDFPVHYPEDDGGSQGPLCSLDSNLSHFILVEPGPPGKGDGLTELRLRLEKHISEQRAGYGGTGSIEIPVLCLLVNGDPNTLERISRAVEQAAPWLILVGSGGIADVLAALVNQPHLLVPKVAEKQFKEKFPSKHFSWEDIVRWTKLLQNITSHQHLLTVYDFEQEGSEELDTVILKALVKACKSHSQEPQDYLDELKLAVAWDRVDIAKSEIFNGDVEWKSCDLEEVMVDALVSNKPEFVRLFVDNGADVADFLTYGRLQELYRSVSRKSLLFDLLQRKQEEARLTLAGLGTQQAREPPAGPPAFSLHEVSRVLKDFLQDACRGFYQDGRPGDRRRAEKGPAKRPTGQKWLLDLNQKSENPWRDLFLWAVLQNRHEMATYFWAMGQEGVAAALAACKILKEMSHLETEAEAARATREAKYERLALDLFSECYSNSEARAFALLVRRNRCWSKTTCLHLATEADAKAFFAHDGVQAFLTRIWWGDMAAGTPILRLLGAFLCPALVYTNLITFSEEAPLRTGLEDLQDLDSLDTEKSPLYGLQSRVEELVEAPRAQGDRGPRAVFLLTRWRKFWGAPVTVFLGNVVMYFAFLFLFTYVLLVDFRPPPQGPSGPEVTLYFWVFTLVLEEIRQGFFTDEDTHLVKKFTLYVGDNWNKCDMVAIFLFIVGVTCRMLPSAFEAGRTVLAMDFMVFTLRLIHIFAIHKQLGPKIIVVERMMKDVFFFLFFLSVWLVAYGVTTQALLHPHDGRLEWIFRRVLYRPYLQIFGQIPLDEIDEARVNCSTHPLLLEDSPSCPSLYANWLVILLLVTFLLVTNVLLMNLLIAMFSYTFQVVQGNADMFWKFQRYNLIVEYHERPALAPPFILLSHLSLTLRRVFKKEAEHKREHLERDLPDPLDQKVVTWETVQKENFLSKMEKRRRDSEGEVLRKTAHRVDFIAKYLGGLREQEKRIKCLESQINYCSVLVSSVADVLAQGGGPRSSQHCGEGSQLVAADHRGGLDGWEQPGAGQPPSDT
Experiment: TRPM5 FLIPR membrane potential assay
Conditions: HEK293 cells stably expressing human TRPM5, membrane potential dye, stimulation with 3 μM ATP
pIC50: −log10 of the molar value.
Parameter: pIC50

>>> observed("Nc1ccccc1P(=O)(c1ccccc1)c1ccccc1")
5.30
>>> observed("O=P(c1ccccc1)(c1ccccc1)c1ccccc1O")
5.30
>>> observed("O=P(c1ccccc1)(c1ccccc1)c1ccccc1")
5.30
>>> observed("O=P(c1ccccc1)(c1ccccc1)c1ccc(O)cc1")
5.30
